- method_description: protein stability index of a GFP-peptide fusion (yeast GPS) (PSI 1-4); higher = more stable; sorted into four equal gates, so the index is relative within each strain
- condition: doa10∆
recorded_metric: protein stability index

# record_sequence, recorded_metric, reported_measurement
data = [
    ("KPYKQVKQIAPAELEGL [FAS2]", "protein stability index", 2.36),
    ("AYAQVEIQPRANIQLDF [FAS2]", "protein stability index", 3.17),
    ("NQIPVTEHSKVTRFDEK [SRB6]", "protein stability index", 2.28),
    ("IAAERAARKAANKEKRA [RPL7B]", "protein stability index", 3.27),
    ("ETAKMIENMTKEKVSNG [FAS2]", "protein stability index", 3.41),
    ("LPFMQNAGPNSNIPNLL [YDL088C/ASM4]", "protein stability index", 2.46),
    ("DRFPLKLREPVARFLHF [ITC1]", "protein stability index", 1.69),
    ("NISKSRAKPVTNSSILL [RRP6]", "protein stability index", 2.14),
    ("LFEIVSNADTNQNSDMK [SRB8]", "protein stability index", 2.51),
    ("DDTKETVYISSIALLKM [RPN11]", "protein stability index", 3.09),
    ("EKKDSGSSKPAFSFGAK [YJL041W/NSP1]", "protein stability index", 3.32),
    ("KRVHTLLTLIVREYEQP [ISW2]", "protein stability index", 3.28),
    ("KRRKTHIHKHVKDEAFD [RET1]", "protein stability index", 2.87),
    ("GRVKALEQFMERNNIGE [YDL116W/NUP84]", "protein stability index", 2.78),
]

---

- method_description: protein stability index of a GFP-peptide fusion (yeast GPS) (PSI 1-4); higher = more stable; sorted into four equal gates, so the index is relative within each strain
- condition: doa10∆
recorded_metric: protein stability index

# record_sequence, recorded_metric, reported_measurement
records = [
    ("GAKYVIRDSGDRIDLRY [RPO21]", "protein stability index", 3.23),
    ("VPNSIGNIFSNIGTPSF [SNF5]", "protein stability index", 2.8),
    ("AFDLDGTGKSQSGSNSG [ROX3]", "protein stability index", 3.44),
    ("ANNIVNIVSDAGANDTS [GRR1]", "protein stability index", 3.2),
    ("VPATAAPGTEAGIVPVS [SWI1]", "protein stability index", 3.1),
    ("NIKLLNNRMGSYDCTGV [POP1]", "protein stability index", 2.85),
    ("ILAMTYSENGKHDSLRY [RPN1]", "protein stability index", 3.28),
    ("PYLLPYILEAEAAAKEK [QCR7]", "protein stability index", 1.39),
    ("HMDYDGNIVKEFENKFQ [YMR129W/POM152]", "protein stability index", 3.28),
    ("NNNDNDANRNANNIVNI [GRR1]", "protein stability index", 2.94),
    ("DHSWFLLIGCKLDQDDE [CSI1]", "protein stability index", 1.54),
    ("EENGDSIKEHSTTMDGA [MED1]", "protein stability index", 3.32),
    ("PNFFLTLISENWWHSEF [BRR2]", "protein stability index", 2.8),
    ("PLVIRRYLPDGSFEDWS [RPO26]", "protein stability index", 3.43),
    ("AIRRDARYNWICNPVHK [RPL15B]", "protein stability index", 3.03),
    ("NYFVDTDLKKIIKANQL [RET1]", "protein stability index", 2.88),
    ("ELESITESITHDSSNGL [NUT1]", "protein stability index", 2.95),
    ("LRLLLLLIEFPYLPKHY [YJR042W/NUP85]", "protein stability index", 1.81),
    ("KDAEDETSSDGSKSDGS [RPN1]", "protein stability index", 3.38),
    ("VTVEQLRSIYHQFHDIL [NSL1]", "protein stability index", 2.41),
    ("SAINQYNRRQDKKNKRL [SNF2]", "protein stability index", 3.13),
    ("IEKNVMESIGSDILTAE [RRP4]", "protein stability index", 2.78),
    ("ELEDVAVKKLYAIIINY [YCS4]", "protein stability index", 1.84),
    ("LSLGMDFIKFDQIAVCE [BRN1]", "protein stability index", 3),
    ("NVNETMSRSLANGIINV [SMC3]", "protein stability index", 2.75),
    ("QDNKQLYQIWIVMVWLK [YDL116W/NUP84]", "protein stability index", 2.62),
    ("GLIVNPVKVSGTIKKIE [POP5]", "protein stability index", 2.41),
    ("STKTGTPSDLSESGSKL [POP1]", "protein stability index", 3.4),
    ("TKKKRKPTEVNDSENNS [ITC1]", "protein stability index", 3.26),
    ("EDYPMSSEIKIYYNELQ [SIR4]", "protein stability index", 1.95),
]

Hey, just so you know, these numbers are from the supplement of paper PMC9732359.
